Tested on: T-Rex 293 cell line SC3 cells lacking increased expression of androgen receptor protein
Assay: Cellular growth inhibition, T-Rex 293 SC3 cells without doxycycline, CellTiter-Glo
Type: cell-based
Details: 72 h, T-Rex 293 SC3 cells not exposed to doxycycline, CellTiter-Glo 2.0
Measure name: GI50

Return GI50 measured with T-Rex 293 cell line SC3 cells lacking increased expression of androgen receptor protein given this compound: Cc1sc2c(c1C)C(c1ccc([C@@H]3CCN(C(=O)[C@H]4CCCN(c5ncc(C(=O)N[C@H]6C(C)(C)[C@H](Oc7ccc(C#N)c(Cl)c7)C6(C)C)cn5)C4)C3)cc1)=N[C@@H](Cc1ncco1)c1nnc(C)n1-2 [Compound I-386] > 3000 nM

Given the entry Cc1sc2c(c1C)C(c1ccc(-c3conc3OC3CCN(c4ncc(C(=O)N[C@H]5C(C)(C)[C@H](Oc6ccc(C#N)c(Cl)c6)C5(C)C)cn4)CC3)cc1)=N[C@@H](Cc1ncco1)c1nnc(C)n1-2 [Compound I-432] , what GI50 was observed with T-Rex 293 cell line SC3 cells lacking increased expression of androgen receptor protein? > 3000 nM

Recall the recorded GI50 for Cc1sc2c(c1C)C(c1ccc(CC3CC4(CCN(c5cnc(C(=O)N[C@H]6C(C)(C)[C@H](Oc7ccc(C#N)c(Cl)c7)C6(C)C)cn5)CC4)C3)cc1)=N[C@@H](Cc1ncco1)c1nnc(C)n1-2 [Compound I-547] with T-Rex 293 cell line SC3 cells lacking increased expression of androgen receptor protein and state it. < 500 nM

Record lookup: for T-Rex 293 cell line SC3 cells lacking increased expression of androgen receptor protein, what GI50 belongs to Cc1sc2c(c1C)C(c1ccc(C(=O)N3CCN(C(=O)c4ncc(C(=O)N[C@H]5C(C)(C)[C@H](Oc6ccc(C#N)c(Cl)c6)C5(C)C)cn4)CC3)cc1)=N[C@@H](Cc1ncco1)c1nnc(C)n1-2 [Compound I-285] ? > 3000 nM

Item: Cc1sc2c(c1C)C(c1ccc(Cl)cc1)=N[C@@H](CC(=O)NCCOCCOCCOC1CCN(c3ncc(C(=O)N[C@H]4C(C)(C)[C@H](Oc5ccc(C#N)c(Cl)c5)C4(C)C)cn3)CC1)c1nnc(C)n1-2 [Compound I-7] Test system: T-Rex 293 cell line SC3 cells lacking increased expression of androgen receptor protein Read-out: GI50 Value: ? 500 to 1500 nM

Could you share what GI50 was measured for Cc1sc2c(c1C)C(c1ccc(O[C@H]3CC[C@@]4(CCN(c5ncc(C(=O)N[C@H]6C(C)(C)[C@H](Oc7ccc(C#N)c(Cl)c7)C6(C)C)cn5)C4)CC3)cc1)=N[C@@H](Cc1ncco1)c1nnc(C)n1-2 [Compound I-179] , tested on T-Rex 293 cell line SC3 cells lacking increased expression of androgen receptor protein? < 500 nM

Form field - read-out: GI50; system: T-Rex 293 cell line SC3 cells lacking increased expression of androgen receptor protein; submitted item: CC[C@@H]1N=C(c2ccc(N3CC(CC4CN(c5cnc(C(=O)N[C@H]6C(C)(C)[C@H](Oc7ccc(C#N)c(Cl)c7)C6(C)C)cn5)C4)C3)cc2)c2c(sc(C)c2C)-n2c(C)nnc21 [Compound I-607] > 3000 nM

Notebook: pull reported GI50 for T-Rex 293 cell line SC3 cells lacking increased expression of androgen receptor protein, entry Cc1sc2c(c1C)C(c1ccc(N3CCC(CC4CCN(c5ncc(C(=O)N[C@H]6C(C)(C)[C@H](Oc7ccc(C#N)c(Cl)c7)C6(C)C)cn5)CC4)CC3)cc1)=N[C@@H](Cc1ncco1)c1nnc(C)n1-2 [Compound I-210] > 3000 nM

Tell me reported GI50 for CNc1ccc2c(n1)C(c1ccc(OC3CC4(CCN(c5ncc(C(=O)N[C@H]6C(C)(C)[C@H](Oc7ccc(C#N)c(Cl)c7)C6(C)C)cn5)CC4)C3)cc1)=NCc1onc(C)c1-2 [Compound I-232] , tested with T-Rex 293 cell line SC3 cells lacking increased expression of androgen receptor protein. > 3000 nM

Form entry - test system: T-Rex 293 cell line SC3 cells lacking increased expression of androgen receptor protein; read-out: GI50; compound: Cc1sc2c(c1C)C(c1ccc([C@H]3C[C@H]([C@H]4CCCN(c5ncc(C(=O)N[C@H]6C(C)(C)[C@H](Oc7ccc(C#N)c(Cl)c7)C6(C)C)cn5)C4)C3)cc1)=N[C@@H](Cc1ncco1)c1nnc(C)n1-2 [Compound I-420] > 3000 nM

# get_value(readout= GI50, system= T-Rex 293 cell line SC3 cells lacking increased expression of androgen receptor protein) for CCNC(=O)C[C@@H]1N=C(c2ccc(OCCOCCOC3CCN(c4ncc(C(=O)N[C@H]5C(C)(C)[C@H](Oc6ccc(C#N)c(Cl)c6)C5(C)C)cn4)CC3)cc2)c2c(sc(C)c2C)-n2c(C)nnc21 [Compound I-44] 500 to 1500 nM

Identify the measured GI50 of Cc1sc2c(c1C)C(c1ccc(OC[C@@H]3CCCN(c4cnc(C(=O)N[C@H]5C(C)(C)[C@H](Oc6ccc(C#N)c(Cl)c6)C5(C)C)cn4)C3)cc1)=N[C@@H](C)c1nnc(C)n1-2 [Compound I-588] for T-Rex 293 cell line SC3 cells lacking increased expression of androgen receptor protein. > 3000 nM
